PIK3CG (human) (UniProt P48736) IC50, compiled from various sources.

Would you mind telling me what IC50 value was observed for C[C@H](NC(=O)c1c(N)nn2cccnc12)c1cc2cccc(C#N)c2c(=O)n1-c1ccccc1 ?
0.1 to 1 µM

Also CCC(Nc1ncnc2[nH]cnc12)c1cc2cccc(C)c2c(=O)n1C1CCN(C)CC1 (stereo not drawn) , if possible.
> 10 µM

Also C[C@H](NC(=O)c1c(N)nn2cccnc12)c1cc2cccc(/C=N\O)c2c(=O)n1-c1ccccc1 , if possible.
0.1 to 1 µM

Also Cc1cccc2cc(Cn3nc(C#CCO)c4c(N)ncnc43)n(-c3ccccc3F)c(=O)c12 , if possible.
< 1 µM

Also NC(=O)c1ccc(Nc2nc(-c3cccc(C(F)(F)F)c3)nc3c2cnn3C2CCN(Cc3ccccc3)CC2)cc1 , if possible.
2.25 µM

Also CCOC(=O)Nc1ccc2c(c1)C(=O)/C(=C/c1cn(C)c3nccc(N4CCC(C(=O)N(C)C)CC4)c13)O2 , if possible.
8.75 µM

----------
pIC50: −log10 of the molar value.
PIK3CG (human) (UniProt P48736) pIC50, compiled from various sources.

Would you mind telling me what pIC50 value was observed for C[C@H](Nc1ncnc2scnc12)c1cc2cccc(Cl)c2c(OCCN2CCCC2)n1 ?
> 6.00

Also C=CC(=O)N1CCOc2ccc(-c3csc4c(=O)cc(N5CCN(C(=O)OC(C)(C)C)CC5)oc34)cc21 , if possible.
4.52 to 5.00

Also CNc1ccc(-c2nc(N3CCOCC3)c3sc(CN(C)c4ncc(C(=O)NO)cn4)cc3n2)cn1 , if possible.
6.00 to 7.00

Also C[C@H](NC(=O)c1c(N)nn2cccnc12)c1cc2cccc(C#CCNC(=O)C3CC(=O)CC(=O)C3)c2c(=O)n1-c1ccccc1 , if possible.
> 7.00

----------
PIK3CG (human) IC50, compiled from various sources.

Can you look up IC50 on PIK3CG (human) for Cc1ccccc1-n1c(Cn2nc(Br)c3c(N)ncnc32)nc2snc(C)c2c1=O ?
> 10000 nM

Also C[C@H](NC(=O)c1c(N)nn2cccnc12)c1cc2cccc(-c3cnn(C)c3)c2c(=O)n1-c1ccccc1 , if possible.
100 to 1000 nM

Also Cn1ncc2c(Oc3ccc4[nH]ccc4c3)nc(-c3ccc(-c4ccccc4)cc3)nc21 , if possible.
> 10000 nM

Also C[C@H](Nc1ncnc2cccnc12)c1cc2cccc(Cl)c2c(C(=O)N2CCOC[C@H]2C)n1 , if possible.
< 1000 nM

Also COc1cccc2c(C)c([C@H](C)NC(=O)c3c(N)nn4cccnc34)n(-c3ccccc3)c(=O)c12 , if possible.
100 to 1000 nM

Also Cc1csc2nc(Cn3nc(Cl)c4c(N)ncnc43)n(-c3ccccc3C(F)(F)F)c(=O)c12 , if possible.
< 1000 nM

Also Cc1cccc2cc([C@H](C)NC3CCOCC3)n(-c3ccccc3)c(=O)c12 , if possible.
> 10000 nM

Also CC(C)N1CCC(Oc2nc([C@H](C)Nc3ncnc4[nH]cnc34)cc3cccc(Cl)c23)CC1 , if possible.
> 10000 nM

Also CCC(Nc1ncnc2[nH]cnc12)c1cc2cccc(C)c2c(=O)n1-c1ccccc1C (stereo not drawn) , if possible.
< 1000 nM

----------
PIK3CG (human) (UniProt P48736) IC50, compiled from various sources.

Would you mind telling me what IC50 value was observed for Cc1cccc2cc(Cn3nc(-c4cc(O)cc(F)c4)c4c(N)ncnc43)n(C3CCCC3)c(=O)c12 ?
< 0.1 µM

Also Cc1cccc2cc(Cn3nc(-c4cc(O)cc(F)c4)c4c(N)ncnc43)n(-c3ccccc3Cl)c(=O)c12 , if possible.
< 0.1 µM

Also C[C@H]1COCCN1C1CN(c2cnc3ccc(-c4ccc5oc(N)nc5c4)nc3n2)C1 , if possible.
< 10 µM

Also COc1cc(-c2cccc3cc([C@H](C)NC(=O)c4c(N)nn5cccnc45)n(C4CCCCC4)c(=O)c23)ccn1 , if possible.
1 to 10 µM

Also C[C@H]1CN(C2CN(c3cnc4ccc(-c5ccc6oc(N)nc6c5)nc4c3)C2)CCN1 , if possible.
< 10 µM

Also Cc1cccc2cc(Cn3nc(-c4cccc(F)c4)c4c(N)ncnc43)n(-c3ccccc3F)c(=O)c12 , if possible.
< 10 µM

Also CS(=O)(=O)N1CCN(C2CN(c3cnc4ccc(-c5ccc6oc(N)nc6c5)nc4n3)C2)CC1 , if possible.
< 1 µM

Also Cc1cccc2cc(Cn3nc(/C=C4/SC(=O)NC4=O)c4c(N)ncnc43)n(-c3ccccc3F)c(=O)c12 , if possible.
< 0.1 µM

----------
PIK3CG (human) IC50, compiled from various sources.

Can you look up IC50 on PIK3CG (human) for Cc1nccn1C1CN(c2cnc3ccc(-c4ccc5oc(N)nc5c4)nc3n2)C1 ?
< 10 µM

Also Cc1cccc2cc([C@H](C)Nc3ncnc4[nH]c(Cl)nc34)n(-c3ccccc3)c(=O)c12 , if possible.
< 10 µM

Also COc1cc(-c2cccc3cc([C@H](C)NC(=O)c4c(N)nn5cccnc45)n(-c4cccc(F)c4)c(=O)c23)ccn1 , if possible.
0.1 to 1 µM

Also Cc1ccccc1-n1c(Cn2nc(I)c3c(N)ncnc32)nc2scc(C)c2c1=O , if possible.
< 1 µM

Also Cc1cccc2cc([C@H](C)Nc3ncnc4cccnc34)nc(OC3CCN(C(C)C)CC3)c12 , if possible.
< 10 µM

----------
PIK3CG (human) IC50, compiled from various sources.

Would you mind telling me what IC50 value was observed for C[C@H](NC(=O)c1nc(-c2cnn(C)c2)cnc1N)c1cc2cccc(Cl)c2c(=O)n1-c1ccccc1 ?
1000 to 10000 nM

Also Cc1cccc2cc([C@H](C)Nc3ncnc4[nH]cnc34)n(C3CCC3)c(=O)c12 , if possible.
< 100 nM

Also Nc1nc2cc(-c3ccc4ncc(N5CC6CCC(C5)O6)cc4n3)ccc2o1 , if possible.
< 100 nM

----------
UniProtKB P48736 IC50, compiled from various sources.

Can you look up IC50 on UniProtKB P48736 for C[C@H](Nc1ccnn2ccnc12)c1cc2cccc(Cl)c2c(C(=O)NC2CCOCC2)n1 ?
> 10 µM

Also Cc1cccnc1-n1c(Cn2nc(Cl)c3c(N)ncnc32)cc2cccc(C)c2c1=O , if possible.
> 10 µM

Also Cc1cccc2cc([C@H](C)Nc3nc(N)ncc3C(N)=O)n(C3CC3)c(=O)c12 , if possible.
> 10 µM

Also Nc1nc2cc(-c3ccc4ncc(N5CCC(N)CC5)nc4c3)ccc2o1 , if possible.
< 10 µM

Also O=C(c1cnc2ccc(-c3ccc4c(Nc5ccccc5)noc4c3)cn12)N1CCOCC1 , if possible.
< 10 µM

Also Cc1cccc2cc(C(C)Nc3ncnc4[nH]cnc34)n(-c3ccccc3)c(=O)c12 (stereo not drawn) , if possible.
< 0.1 µM

----------
pIC50: −log10 of the molar value.
PIK3CG (human) pIC50, compiled from various sources.

Would you mind telling me what pIC50 value was observed for CN1CCCC1CCNC(=O)c1nc2c(N3CCOCC3)nc(-c3cnn(C)c3)nc2[nH]1 (stereo not drawn) ?
5.21

Also Cc1cccc2cc([C@H](C)Nc3nc(Cl)ncc3Cl)n(-c3ccccc3)c(=O)c12 , if possible.
> 5.00

Also C[C@@H]1CN(C2CCN(C(=O)c3nc4c(N5CCOCC5)nc(-c5cn[nH]c5)nc4[nH]3)CC2)C[C@H](C)O1 , if possible.
5.01

Also Nc1nc2cc(-c3ccc4ncc(-c5cccnc5)cc4n3)ccc2o1 , if possible.
> 7.00

Also C[C@H](NC(=O)c1nc(-c2cccc(S(=O)(=O)N3CCN(C)CC3)c2)cnc1N)c1cc2cccc(Cl)c2c(=O)n1-c1ccccc1 , if possible.
5.00 to 6.00

Also C[C@H](NC(=O)c1c(N)nn2cccnc12)c1cc2ccccc2c(=O)n1-c1ccccc1 , if possible.
6.00 to 7.00

Also Cc1cccc2cc(C(C)Nc3ncnc4[nH]cnc34)n(-c3ccc(F)cc3)c(=O)c12 (stereo not drawn) , if possible.
> 7.00

Also COc1ccc2c(n1)c(C=C1Oc3cccc(O)c3C1=O)cn2C , if possible.
< 5.00

Also Cc1nc(NC(=O)CCCN[C@@H](Cc2ccccc2)C(=O)OC2CCCC2)sc1-c1ccc(Cl)c(S(C)(=O)=O)c1 , if possible.
< 6.00

Also Cc1cccc2cc([C@@H](C)Nc3ncnc4[nH]cnc34)n(C3CCC3)c(=O)c12 , if possible.
> 5.00

Also C[C@H](Nc1ncnc2scnc12)c1cc2cccc(-c3cnc4c(c3)CCCC4)c2c(=O)n1-c1ccccc1 , if possible.
5.00 to 6.00

Also C[C@H](Nc1ccnc2ccnn12)c1cc2cccc(Cl)c2c(CCN2CCOCC2)n1 , if possible.
> 5.00

Also Cc1c([C@H](C)NC(=O)c2c(N)nn3cccnc23)n(-c2ccccc2)c(=O)c2c(F)cccc12 , if possible.
> 7.00

Also Cc1ccccc1-n1c(Cn2nc(-c3cccc(O)c3)c3c(N)ncnc32)nc2snc(C)c2c1=O , if possible.
> 5.00

Also Nc1nc2cc(-c3ccc4ncc(N5CC(N6CCN(CC7CC7)CC6)C5)nc4n3)ccc2o1 , if possible.
> 5.00

Also O=C(NO)c1cnc(NCc2cc3nc(-c4cccc5[nH]ncc45)nc(N4CCOCC4)c3s2)nc1 , if possible.
> 7.00

Also C[C@H](Nc1ccnc2ccnn12)c1cc2cccc(Cl)c2c(C(=O)N2CCOCC2)n1 , if possible.
> 6.00

Also CNC(=O)CCCn1cnc2ccc(-c3cnc(C)c(NS(=O)(=O)c4ccc(F)cc4Cl)c3)cc2c1=O , if possible.
7.47

Also C[C@@H]1CN(C2CCN(c3ccnc4c3c(/C=C3\Oc5ccc(NC(=O)Nc6cccnc6)cc5C3=O)cn4C)CC2)C[C@H](C)O1 , if possible.
6.13

Also C[C@H](Nc1ccc2c(c1F)OCCn1cc(N3C(=O)SC[C@H]3C(F)F)nc1-2)C(N)=O , if possible.
6.61

Also COCCNC(=O)C(C)Cn1cnc2ccc(-c3cnc(OC)c(NS(=O)(=O)c4ccc(F)cc4Cl)c3)cc2c1=O (single isomer, unassigned) , if possible.
7.79
